Molecular target: Tyrosyl-tRNA synthetase, putative (Trypanosoma cruzi (strain CL Brener)) (UniProt Q4DSP6)
Sequence (Q4DSP6 as listed by the source): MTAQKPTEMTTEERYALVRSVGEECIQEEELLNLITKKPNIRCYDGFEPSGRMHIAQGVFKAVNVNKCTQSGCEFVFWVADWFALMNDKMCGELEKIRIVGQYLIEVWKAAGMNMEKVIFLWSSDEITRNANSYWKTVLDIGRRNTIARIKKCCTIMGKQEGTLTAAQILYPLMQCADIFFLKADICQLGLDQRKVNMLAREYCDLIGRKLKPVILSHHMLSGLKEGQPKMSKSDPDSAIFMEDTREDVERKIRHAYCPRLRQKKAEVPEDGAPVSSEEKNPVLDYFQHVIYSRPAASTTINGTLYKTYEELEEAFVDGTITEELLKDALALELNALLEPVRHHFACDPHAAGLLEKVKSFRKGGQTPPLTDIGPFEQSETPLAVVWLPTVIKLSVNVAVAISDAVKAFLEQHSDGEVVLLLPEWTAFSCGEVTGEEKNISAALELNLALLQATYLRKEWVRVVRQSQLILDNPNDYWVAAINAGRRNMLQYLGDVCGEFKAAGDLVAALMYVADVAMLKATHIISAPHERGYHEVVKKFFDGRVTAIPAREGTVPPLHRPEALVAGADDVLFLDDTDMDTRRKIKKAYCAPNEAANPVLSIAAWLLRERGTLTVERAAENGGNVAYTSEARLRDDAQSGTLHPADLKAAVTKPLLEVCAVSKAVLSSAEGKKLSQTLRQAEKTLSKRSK
Assay: Trypanosoma cruzi tyrosyl tRNA synthetase (TcYRS) SOP
Format: functional
Design: scale not given: direction of the effect not stated beside the values
Conditions: 30 µM
Response field label: string, one of fulfilled (Percent Effect strictly below 10%) or not fulfilled.

[
  {
    "Compound": "CCCNC(=O)CN1CCC(C(=O)Nc2cnn(CC)c2)CC1",
    "Label": "not fulfilled"
  },
  {
    "Compound": "COc1cc(CCC(C)O)c(OC)c2c1OCO2 (stereo not given)",
    "Label": "fulfilled"
  },
  {
    "Compound": "O=C(COc1ccc2c(c1)CCC2)N1CCOCC1c1ncon1 (stereo not given)",
    "Label": "fulfilled"
  },
  {
    "Compound": "Cc1ccccc1CNC(=O)Cc1c(C)nc2cc(=O)[nH]n2c1C",
    "Label": "not fulfilled"
  },
  {
    "Compound": "CN(Cc1cnn(C)c1)C(=O)NC1CCN(c2ncccn2)CC1",
    "Label": "fulfilled"
  }
]

Would you kindly verify if Percent Effect of Cc1cc2nc(SCC(=O)N3CCCC3)n(-c3ccccc3)c(=O)c2[nH]1 is strictly less than 10%?
fulfilled

Ok, now CCOc1ccnc(N2CCN(C(=O)c3cccnc3O)CC2)n1
not fulfilled

Ok, now Cc1cnn(CCNCc2ccccc2OCc2cccnc2)c1
fulfilled

Ok, now c1cncc(OCc2noc3c2CN(Cc2ccoc2)CC3)c1
not fulfilled

Ok, now CCOC(CC)C(=O)NCCC(=O)N1CCN(c2ncccn2)CC1 (stereo not given)
fulfilled

Ok, now CC(C)c1nccn1-c1cccc(C2CCN(C)CC2)n1
fulfilled

Ok, now CCc1nsc(NC2CCCn3nc(COC)nc32)n1 (stereo not given)
not fulfilled

Ok, now O=c1cc2c(nn1CN1CCN(c3cccc(Cl)c3)CC1)CCC2
not fulfilled

Ok, now c1cnnc(NCC2CN(Cc3cccc4c3OCCO4)CCO2)c1 (stereo not given)
not fulfilled

----------
Listed here: items and their measured Percent Effect.
Species on record: Homo sapiens
Experiment: To identify inhibition of the IFN signalling (Jak-Stat) pathway via expression of an eGFP reporter gene under the control of an IFN-stimulated response element (ISRE) containing MxA promoter.
Assay type: functional
Set-up: scale not given: direction of the effect not stated beside the values
Settings: 30 µM
Please don't drop the unit; write it after the number.

[
  {
    "Molecule": "CC(=O)Nc1nc(C(=O)N2CCCC(n3nc(C)cc3C)C2)cs1 (stereo not given)",
    "Percent Effect": "-2.38%"
  }
]

What does the data say about its Percent Effect? Entry: O=C(O)C1(Cc2ccccc2Cl)CCN(c2ncccc2F)CC1
7.74%

Ok, now CC(CNC(=O)c1ccc(F)cc1Cl)N1CCCC1 (stereo not given)
-9.11%

Ok, now Cc1cnc(CNc2c(F)cccc2-n2cccn2)o1
5.49%

----------
Biological target: Proteasome subunit beta (Trypanosoma cruzi) (UniProt O96673)
Sequence (whole entry): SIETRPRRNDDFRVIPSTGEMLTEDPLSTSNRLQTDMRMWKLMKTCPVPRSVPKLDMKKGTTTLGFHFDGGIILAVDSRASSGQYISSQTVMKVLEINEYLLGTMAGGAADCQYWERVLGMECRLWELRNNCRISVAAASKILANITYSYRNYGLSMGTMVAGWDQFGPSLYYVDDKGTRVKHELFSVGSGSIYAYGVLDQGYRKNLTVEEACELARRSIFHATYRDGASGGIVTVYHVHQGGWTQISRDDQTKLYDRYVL
Experiment: Trypanosoma cruzi proteasome chymotrypsin-like activity (TcProtChymo) assay. Further: in the data most compounds retested in dose-response had high values.
Format: functional
Design: scale not given: direction of the effect not stated beside the values
Settings: 9.37 µM
Each entry gets 0 if its Percent Effect stays under 10%, and 1 if its Percent Effect is 10% or above.

// below: answered compounds
[
  {
    "Compound": "O=C1NC(c2ccccc2)=N[C@@]12CC[C@@H]1CN(Cc3ccco3)C[C@@H]12",
    "Label": 0
  },
  {
    "Compound": "O=C(c1ccc2[nH]ccc2c1)N1CCn2cnc(COCC3CC3)c2C1",
    "Label": 1
  },
  {
    "Compound": "CN(CCN1CCOCC1)C(=O)CCCc1ccccc1",
    "Label": 1
  },
  {
    "Compound": "Cc1ccc(-c2cc(CNC(=O)N3CCC(CO)CC3)on2)cc1",
    "Label": 1
  },
  {
    "Compound": "COc1ccc(F)cc1C(C(=O)O)N1CCSCC1 (stereo unspecified)",
    "Label": 0
  }
]

Has O=c1oc(-c2cccs2)nn1CC(O)c1ccc(F)cc1 (stereo unspecified) a recorded Percent Effect greater than or equal to 10%?
1
